Experimental Target: human ether-à-go-go-related gene (hERG) potassium channel (human, UniProt Q12809);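 note: peak tail current of the secondary pulse compared with the same well before compound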
Sequence (Q12809 whole entry, looked up): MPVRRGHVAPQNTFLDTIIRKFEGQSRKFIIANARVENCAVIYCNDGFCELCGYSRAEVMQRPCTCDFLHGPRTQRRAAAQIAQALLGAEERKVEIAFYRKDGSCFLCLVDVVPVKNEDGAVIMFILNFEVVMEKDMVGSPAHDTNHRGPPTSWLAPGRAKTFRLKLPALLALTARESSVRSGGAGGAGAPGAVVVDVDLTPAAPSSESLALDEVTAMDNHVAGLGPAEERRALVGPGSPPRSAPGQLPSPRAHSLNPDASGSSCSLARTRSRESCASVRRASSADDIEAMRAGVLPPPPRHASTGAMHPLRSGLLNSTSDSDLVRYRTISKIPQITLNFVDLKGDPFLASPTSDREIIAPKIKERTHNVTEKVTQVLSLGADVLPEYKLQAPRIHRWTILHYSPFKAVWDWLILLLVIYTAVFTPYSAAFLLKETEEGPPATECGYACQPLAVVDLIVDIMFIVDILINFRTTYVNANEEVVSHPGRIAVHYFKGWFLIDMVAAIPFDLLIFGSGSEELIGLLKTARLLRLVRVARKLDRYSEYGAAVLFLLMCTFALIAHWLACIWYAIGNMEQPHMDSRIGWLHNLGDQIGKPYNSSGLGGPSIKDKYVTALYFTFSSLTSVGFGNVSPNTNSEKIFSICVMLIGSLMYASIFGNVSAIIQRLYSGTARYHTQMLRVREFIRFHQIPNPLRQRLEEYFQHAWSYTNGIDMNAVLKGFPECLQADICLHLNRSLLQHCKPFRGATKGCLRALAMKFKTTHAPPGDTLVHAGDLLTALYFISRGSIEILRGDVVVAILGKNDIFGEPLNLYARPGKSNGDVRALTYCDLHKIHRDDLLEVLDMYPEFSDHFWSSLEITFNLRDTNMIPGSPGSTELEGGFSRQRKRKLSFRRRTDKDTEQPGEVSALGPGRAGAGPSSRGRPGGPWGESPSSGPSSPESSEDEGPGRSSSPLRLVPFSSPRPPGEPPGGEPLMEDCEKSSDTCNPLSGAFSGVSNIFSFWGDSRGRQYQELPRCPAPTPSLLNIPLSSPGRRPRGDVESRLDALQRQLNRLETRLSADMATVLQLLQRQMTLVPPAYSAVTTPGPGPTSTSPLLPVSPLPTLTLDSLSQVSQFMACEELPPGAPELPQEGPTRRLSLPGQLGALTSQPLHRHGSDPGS
Experimental Protocol: primary screen, population patch clamp on CHO cells stably expressing hERG; higher = less effect of the substance
The campaign covered roughly 310,000 compounds. About 14,000 (4.5%) showed an effect of 50% or more. The effect is printed as a negative number. The full list was thinned out, with strong results kept by preference.
Tag: met if measured hERG current change (%, negative = inhibition) at 10uM is not below -10%, not met if it is.

INSERT INTO results (compound, group_label) VALUES
  ('CCCNc1nc(Nc2ccc(C)cc2)nc(N2CCCC2)n1', 'not met'),
  ('Nc1cc(=O)[nH]c(SCC(=O)NCC2CCCO2)n1 (stereo not drawn)', 'met'),
  ('O=[N+]([O-])c1ccc(Nc2nc(NCCO)nc(N3CCCC3)n2)cc1', 'not met'),
  ('CC1=C(C#N)C(=O)N(C2CCS(=O)(=O)C2)C(=O)/C1=C\c1ccco1 (stereo not drawn)', 'met'),
  ('COc1nc(NCCO)nc(Nc2ccc([N+](=O)[O-])cc2)n1', 'not met'),
  ('Cc1cc(C[n+]2cc(Br)ccc2N)c2ncccc2c1.[Br-]', 'not met'),
  ('Cc1cc(C[n+]2cc(Cl)ccc2N)c2ncccc2c1.[Br-]', 'not met'),
  ('Nc1scn[n+]1Cc1cccc2cccnc12.[Br-]', 'not met');
